Origin of measurements: patent US20260098013A1

Conditions: rat, in vivo
PROPERTY LABEL: steadiness of plasma concentration

[[record]]
compound = "CC(=O)N[C@H](Cc1ccccc1)C(=O)Oc1ccc2c(c1)[C@]13CCCC[C@@H]1[C@H](C2)N(C)CC3 [3-(N-Ac-D-Phe)-dextrorphan]"
reported = "much steadier"

[[record]]
compound = "CC(=O)N[C@@H](Cc1ccccc1)C(=O)Oc1ccc2c(c1)[C@]13CCCC[C@@H]1[C@H](C2)N(C)CC3 [3-(N-Ac-L-Phe)-dextrorphan]"
reported = "much steadier"

[[record]]
compound = "CC(=O)N[C@@H](CCC(=O)O)C(=O)Oc1ccc2c(c1)[C@]13CCCC[C@@H]1C(C2)N(C)CC3 [3-(N-Ac-L-Glu)-dextrorphan]"
reported = "steadier"

[[record]]
compound = "CC(=O)N[C@H](C)C(=O)Oc1ccc2c(c1)[C@]13CCCC[C@@H]1C(C2)N(C)CC3 [3-(N-Ac-D-Ala)-dextrorphan]"
reported = "steadier"

[[record]]
compound = "CC(=O)N[C@H](CCC(=O)O)C(=O)Oc1ccc2c(c1)[C@]13CCCC[C@@H]1C(C2)N(C)CC3 [3-(N-Ac-D-Glu)-dextrorphan]"
reported = "steadier"

[[record]]
compound = "CC(=O)N[C@@H](C)C(=O)Oc1ccc2c(c1)[C@]13CCCC[C@@H]1C(C2)N(C)CC3 [3-(N-Ac-L-Ala)-dextrorphan]"
reported = "steadier"

